Test system: 422866-222-R5-J1-PDC spheroids with HUVEC/MSC, viability;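 note: spheroids exposed to compounds for seven days before reading; percent viability relative to DMSO vehicle control taken as 100%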
test protocol: Anticancer human tumor 422866-222-R5-J1-PDC patient-derived pancreatic adenocarcinoma cell line growth inhibition [GQUAD]
conditions used: second compound 0.1 µM; first compound 0.316 µM; hits give low values
endpoint label: viability, T/C (%)
Value expressed in %; do not type the unit.

## Input Short answer please: viability, T/C, 422866-222-R5-J1-PDC spheroids with HUVEC/MSC, viability, entry CCCS(=O)(=O)Nc1ccc(F)c(C(=O)c2c[nH]c3ncc(-c4ccc(Cl)cc4)cc23)c1F + CN(C)c1ccc(Nc2c3ccc(NC(=O)CCN4CCCC4)cc3nc3cc(NC(=O)CCN4CCCC4)ccc23)cc1
## Output 112

## Input Here is the next compound: CCc1c2c(nc3ccc(O)cc13)-c1cc3c(c(=O)n1C2)COC(=O)[C@]3(O)CC + Cc1[nH]c2ccc(F)cc2c1-c1nc2c3cccnc3c3ncccc3c2[nH]1
## Output 28.1

## Input Here is the next compound: O=C(NO)c1cnc(N2CCN(S(=O)(=O)c3ccc4ccccc4c3)CC2)nc1 + Cc1[nH]c2ccc(F)cc2c1-c1nc2c3cccnc3c3ncccc3c2[nH]1
## Output 56.4

Data origin: PubChem BioAssay AID2060511
